Measurement target: T1, cynomolgus RSPO3 (cynomolgus, UniProt A0A2K5UTQ7 22-273)
T1 construct: also called cyno RSPO3
T1 sequence: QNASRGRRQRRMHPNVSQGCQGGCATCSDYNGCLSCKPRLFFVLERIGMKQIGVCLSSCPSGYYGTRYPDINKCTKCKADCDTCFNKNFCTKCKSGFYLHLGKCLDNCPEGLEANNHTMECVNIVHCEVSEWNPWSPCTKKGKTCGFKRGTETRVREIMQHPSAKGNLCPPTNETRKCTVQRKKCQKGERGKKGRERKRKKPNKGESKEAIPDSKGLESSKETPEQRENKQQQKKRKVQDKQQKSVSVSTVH
Experimental details: SPR (BIAcore T200), RSPO3 immobilized, antibody injected, 25 C, 1:1 Langmuir
Observable: koff

- hu15F3.L4H2 (antibody, V domains shown, CDR graft only (L4, H2); also called humanized 15F3) VH: EVQLVESGGGVVQPGRSLRLSCAASGFTFSDYDMAWVRQAPGKGLEWVATIIYDGSRAYFGDSVRGRFTISRDNSKNTLYLQMNSLRAEDTAVYYCTAHDRSFDYWGQGTMVTVSS VL: DIQMTQSPSSLSASVGDRVTITCLVSEDISNDFVWYQQKPGKAPKLLIYAASRLQDGVPSRFSGSGSGTDFTLTISSLQPEDFATYYCQQSYKYPPTFGQGTKLEIK: 0.000116 s⁻¹
- chimeric 4A6 (antibody, V domains shown, Chimeric counterpart of hu4A6 with the rat 4A6 variable domains) VH: EVQLVESGGGSVQPGRSLKVSCAASGFTFSDYDMAWVRQAPKKGLEWVATIIYDGSRTYYRDSVKGRFTLSRDNTKSTLCLQMDSLRSEDTATYYCAAHDRSFDYWGQGIMVTVSS VL: DIQMTQSPASLSASLGETVSIECLASEDISNDLVWYQQKSGKSPQLLIYAASRLQDGVPSRFSGSGFGTRFSLKISGMQPEDEADYFCQQSYKYLPTFGAGTKLGLK: 3.36e-05 s⁻¹
- chimeric 11C10 (antibody, V domains shown, Chimeric counterpart with the rat 11C10 variable domains) VH: EVQLVESGGGLVQPGRSLKLSCAASGFTFSDYDMAWVRQAPKKGLEWVATIIYDGSRTYYRDSVKGRFTISRANAKSTLYLQMDSLRSEDTATYYCATHDKTFDYWGQGVMVTVSS VL: DIQMTQSPASLSASLGETVTIECRASEDIYSDLAWYQQKPGNSPQLLIYDVNSLIHGVPSRFSGSGSGTQFSLKINNLQSEDVASYFCQQYDNYPNTFGAGTKLELK: 0.000963 s⁻¹
- anti-RSPO3 antibody 5D6 (WO2015/058132) (antibody, V domains shown) VH: EVQLQESGPSLVKPSQTLSLTCSVTGDSITSGYWNWIRKFPGNKFEYMGYISYSGKTYQNPSLKSRISITRDTSKNQYHLQLNSVTTEDTATYYCATYYGYGGPWFAYWGQGTLVTVSA VL: DIVLTQSPSSMYASLGERVTITCKASQDIDSYLSWFQQKPGKSPKTLIYLTNRLVDGVPSRFSGSGSGQDYSLTISSLEYEDMGIYYCLHYDEFPLTFGAGTKLEIK: 0.000321 s⁻¹
